The values you see were collected from paper PMC7655571.

Target: human blood AChE (Homo sapiens, UniProt P22303)
Construct: 90 µL undiluted blood in a 48-wells plate; from tissue; host or cells: venous EDTA whole blood from healthy human donors, lysed and diluted in Triton X-100 buffer
Sequence (P22303 32-617 isoform P22303-2 limits assumed): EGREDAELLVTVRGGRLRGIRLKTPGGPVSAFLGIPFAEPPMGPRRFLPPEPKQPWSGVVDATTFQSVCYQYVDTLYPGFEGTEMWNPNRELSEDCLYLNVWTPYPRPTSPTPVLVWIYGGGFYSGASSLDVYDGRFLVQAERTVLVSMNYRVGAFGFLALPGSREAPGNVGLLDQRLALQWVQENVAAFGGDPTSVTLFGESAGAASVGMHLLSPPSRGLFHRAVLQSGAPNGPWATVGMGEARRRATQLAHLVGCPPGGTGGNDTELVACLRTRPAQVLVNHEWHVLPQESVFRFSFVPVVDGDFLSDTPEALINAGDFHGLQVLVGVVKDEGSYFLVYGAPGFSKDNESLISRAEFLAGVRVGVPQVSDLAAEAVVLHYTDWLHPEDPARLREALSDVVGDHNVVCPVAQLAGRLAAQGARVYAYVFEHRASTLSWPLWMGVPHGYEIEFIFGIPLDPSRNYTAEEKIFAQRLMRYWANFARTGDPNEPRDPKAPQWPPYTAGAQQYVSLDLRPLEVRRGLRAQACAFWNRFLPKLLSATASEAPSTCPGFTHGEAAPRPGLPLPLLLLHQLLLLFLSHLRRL
Test: AChE inhibition in human donor whole blood (Ellman method)
Format: biochemical
Conditions: donor 7; read-out: IC50 Value
Experimental Readout: pIC50
Scale: pIC50 equals -log10([C]), with [C] in mol/L.

Name the recorded pIC50 of the item `CCOP(=O)(OCC)Oc1cc(C)nc(C(C)C)n1` in your answer.
5.62

---

Target: human blood AChE (Homo sapiens)
Construct: 90 µL undiluted blood in a 48-wells plate; from tissue; host or cells: venous EDTA whole blood from healthy human donors, lysed and diluted in Triton X-100 buffer
Test: AChE inhibition in human donor whole blood (Ellman method)
Format: biochemical
Settings: donor 16; read-out: IC50 Value
Experimental Readout: pIC50
The scale used: pIC50 is minus the common logarithm of the concentration in molar units.

Name the recorded pIC50 of the item CCOP(=O)(OCC)Oc1cc(C)nc(C(C)C)n1 [DZO, diazinon-oxon] in your answer.
5.52
